Task for the reader: assign each of the following compounds its reported Plant response rating, Blackgrass.
- System: blackgrass
- Procedure Summary: Test B pre/postemergence blackgrass
- Assay type: in vivo, Alopecurus myosuroides
- Assay Conditions: Rate 250 g/ha, Postemergence; scale of 0 to 10 where 0 is no effect and 10 is complete control
// return just the number, without any unit appended

Request the reported Plant response rating, Blackgrass associated with `CC(=O)OCn1c(=O)on(C(=O)N(c2ccc(F)cc2)C(C)C)c1=O` 0

Record request: Plant response rating, Blackgrass value, item CCOC(=O)C(C)N(C(=O)n1oc(=O)n(C(C)C)c1=O)c1ccc(F)cc1 (centres unmarked) 0

Could you tell me which Plant response rating, Blackgrass is on file for `CC(Cl)=CCn1c(=O)on(C(=O)N(c2ccc(F)cc2)C(C)C)c1=O` ? 7

Look up Plant response rating, Blackgrass: `COCn1c(=O)on(C(=O)N(c2ccccc2)C(C)C)c1=O` 3

Tell me the measured Plant response rating, Blackgrass of `CC(C)N(C(=O)n1oc(=O)n(C2CC2)c1=O)c1ccc(F)cc1F` , please. 8

* * *

- Tested on: blackgrass
- Procedure Summary: Test B pre/postemergence blackgrass
- Assay type: in vivo, Alopecurus myosuroides
- Assay Conditions: Rate 125 g/ha, Postemergence; scale 0 to 10, 0 is no effect, 10 is complete control
Recorded Metric: Blackgrass plant response rating
Respond using a number only.

Return reported Blackgrass plant response rating; argument: `C=C[Si](C)(C)Cn1c(=O)on(C(=O)N(c2ccc(Cl)cc2)C(C)C)c1=O` 3

Which Blackgrass plant response rating is listed for `CC[Si](C)(C)Cn1c(=O)on(C(=O)N(c2ccc(F)cc2)C(C)C)c1=O` ? 1

Can you share its Blackgrass plant response rating? I mean this compound: `CC(C)N(C(=O)n1oc(=O)n(C(CF)CF)c1=O)c1ccccc1` 8

Which Blackgrass plant response rating value belongs to `CCC=CCn1c(=O)on(C(=O)N(c2ccccc2)C(C)C)c1=O` ? 0

Reported Blackgrass plant response rating, compound `CC(C)N(C(=O)n1oc(=O)n(COCC[Si](C)(C)C)c1=O)c1ccc(Cl)cc1` : ____ 0

* * *

- Test system: crabgrass
- Procedure Summary: Test B pre/postemergence crabgrass
- Assay type: in vivo, Digitaria sanguinalis
- Assay Conditions: Preemergence, Rate 250 g/ha; scale 0 to 10, 0 is no effect, 10 is complete control
Recorded Metric: Crabgrass plant response rating
Keep the answer to the number alone.

What measured Crabgrass plant response rating is associated with CC1CC1Cn1c(=O)on(C(=O)N(c2ccc(F)cc2)C(C)C)c1=O (stereo not drawn) on crabgrass? 10

Give Crabgrass plant response rating (crabgrass) of the following compound: `CC(C)N(C(=O)n1oc(=O)n(CCC#N)c1=O)c1ccccc1` 0

Value wanted: Crabgrass plant response rating (crabgrass) of entry `C=C(C)CCn1c(=O)on(C(=O)N(c2ccccc2)C(C)C)c1=O` 10

* * *

- Tested on: wild oat
- Procedure Summary: Test B pre/postemergence wild oat
- Assay type: in vivo, Avena fatua
- Assay Conditions: Preemergence, Rate 125 g/ha; scale 0 to 10 (0 no effect, 10 complete control)
Recorded Metric: Plant response rating, Wild oats
Lab note: jot the number down without any unit.

// lookup Plant response rating, Wild oats for `Cc1cccc(C)c1-n1c(=O)on(C(=O)N(Cc2ccccc2)C(C)C)c1=O` 0

Record request: Plant response rating, Wild oats value, item `Cc1ccccc1-n1c(=O)on(C(=O)N(c2ccccc2)C(C)C)c1=O` 2

Recorded Plant response rating, Wild oats of `Cc1cccc(C(C)C)c1-n1c(=O)on(C(=O)N(c2ccccc2)C(C)C)c1=O` , please. 0

Quick check: Plant response rating, Wild oats of `CC(C)N(C(=O)n1oc(=O)n(-c2ccc(Cl)cc2C(F)(F)F)c1=O)c1ccc(F)cc1` ? 0

Which Plant response rating, Wild oats is reported for this compound? `CC(C)N(C(=O)n1oc(=O)n(-c2cc(Cl)ccc2Cl)c1=O)c1ccc(F)cc1` 0

* * *

- System: bamyardgrass
- Procedure Summary: Test B flood test barnyardgrass
- Type: in vivo, Echinochloa crus-galli
- Assay Conditions: Rate 2000 g/ha; Pre-emergence (as headed); scale 0 to 10, 0 no effect, 10 complete control
- Method: At the same time, these crop and weed species were also treated with postemergence applications of test chemicals formulated in the same manner. Plants ranged in height from 2 to 18 cm (1- to 4-leaf stage) for postemergence treatments. […] Treated plants and controls were maintained in a greenhouse for twelve to sixteen days, after which all species were compared to controls and visually evaluated. […]
Kindly supply the reported Barnyardgrass plant response rating values for the records listed here.
Answer with a number only.

Barnyardgrass plant response rating of CC(C)N(C(=O)n1oc(=O)n(Cc2ccccc2)c1=O)c1ccccc1 [Compound 94] on bamyardgrass? 7

For the record CCN(C(=O)n1oc(=O)n(N(C)c2ccccc2)c1=O)C1CCCCC1 [Compound 183] , what value of Barnyardgrass plant response rating is listed for bamyardgrass? 0

Test system bamyardgrass; read-out Barnyardgrass plant response rating; what value for CC(C)N(C(=O)n1oc(=O)n(C(C)C)c1=O)c1ccc(F)cc1F [Compound 109] ? 9

Record CCN(C(=O)n1oc(=O)n(N(C)C)c1=O)C1CCCCC1 [Compound 274] : what is its Barnyardgrass plant response rating with bamyardgrass? 0

* * *

For each entry below, report its Plant response rating, B. signalgrass value.
- Tested on: surinam grass
- Procedure Summary: Test B pre/postemergence surinam grass
- Format: in vivo, Brachiaria decumbens
- Assay Conditions: Rate 250 g/ha, Postemergence; scale 0 to 10, 0 is no effect, 10 is complete control
The answer should be written as a number, with no unit following it.

GET /values?readout=Plant response rating, B. signalgrass&item= `Cc1ccc(N(C(=O)n2oc(=O)n(C(C)C)c2=O)C(C)C)cc1` 4

GET /values?readout=Plant response rating, B. signalgrass&item= `CCN(Cc1ccncc1)C(=O)n1oc(=O)n(C(C)C)c1=O` 0

What value of measured Plant response rating, B. signalgrass is listed for `CN(C(=O)n1oc(=O)n(Cc2ccccc2)c1=O)c1ccccc1` ? 0

Given the entry `CC(C)N(C(=O)n1oc(=O)n([C@@H](C)c2ccccc2)c1=O)c1ccccc1` , report its measured Plant response rating, B. signalgrass. 0

Need Plant response rating, B. signalgrass of `CC(C)N(C(=O)n1oc(=O)n(C(C)(C)C)c1=O)c1ccccc1` , thanks. 4

Given `CC(C)N(C(=O)n1oc(=O)n(N(C)c2ccccc2)c1=O)c1ccc(F)cc1` , state its recorded Plant response rating, B. signalgrass. 0

Requested read-out: Plant response rating, B. signalgrass. Entry: `CC(C)N(C(=O)n1oc(=O)[nH]c1=O)c1ccc(F)cc1` 0

* * *

- Tested on: wild oat
- Procedure Summary: Test B pre/postemergence wild oat
- Type: in vivo, Avena fatua
- Assay Conditions: Postemergence, Rate 250 g/ha; scale 0 to 10
What Wild oats plant response rating was measured for each of the following?
Lab note: jot down the number only; don't add units.

# input compound: C=CC(OC)n1c(=O)on(C(=O)N(c2ccc(F)cc2)C(C)C)c1=O (stereo not drawn) [Compound 452] ; wanted: its Wild oats plant response rating 0

// returns reported Wild oats plant response rating for input C=C[Si](C)(C)Cn1c(=O)on(C(=O)N(c2ccc(Cl)cc2)C(C)C)c1=O [Compound 425] 2

Look at this compound and give its reported Wild oats plant response rating. CCN(C(=O)n1oc(=O)n(C2CCCCCC2)c1=O)C1CCCCC1 [Compound 429] 0

Give the measured Wild oats plant response rating of CC[Si](C)(C)Cn1c(=O)on(C(=O)N(c2ccc(F)cc2)C(C)C)c1=O [Compound 459] . 0

Query (compound): CC(C)N(C(=O)n1oc(=O)n(CCC#N)c1=O)c1ccccc1 [Compound 436] ; field requested: Wild oats plant response rating 0

Bench note: what Wild oats plant response rating did CCOP(=O)(OCC)C(C)n1c(=O)on(C(=O)N(c2ccccc2)C(C)C)c1=O (stereo not drawn) [Compound 448] show? 0

* * *

Could you please report measured Plant response rating, Crabgrass for the items listed next?
- Tested on: crabgrass
- Procedure Summary: Test B pre/postemergence crabgrass
- Assay type: in vivo, Digitaria sanguinalis
- Assay Conditions: Preemergence, Rate 125 g/ha; scale of 0 to 10 where 0 is no effect and 10 is complete control
Write no unit; give the number alone.

// returns reported Plant response rating, Crabgrass for input CC(C)N(C(=O)n1oc(=O)n(CCCCl)c1=O)c1ccccc1 [Compound 750] 9

GET /values?readout=Plant response rating, Crabgrass&item= CCOP(=O)(OCC)C(C)n1c(=O)on(C(=O)N(c2ccccc2)C(C)C)c1=O (centres unmarked) [Compound 448] 4

Requested read-out: Plant response rating, Crabgrass. Entry: CC(C)N(C(=O)n1oc(=O)n(C(CF)CF)c1=O)c1ccc(F)cc1 [Compound 390] 9

What value of Plant response rating, Crabgrass has been recorded for this entry: CCN(C(=O)n1oc(=O)n(C2CCCCCC2)c1=O)C1CCCCC1 [Compound 429] 10

Which Plant response rating, Crabgrass is listed for CC(C)N(C(=O)n1oc(=O)n(C(C)C2=NOCC2)c1=O)c1ccc(Cl)cc1 (racemic) [Compound 759] ? 7

Endpoint output: Plant response rating, Crabgrass of CC(C)N(C(=O)n1oc(=O)n(CCC(F)(F)F)c1=O)c1ccc(F)cc1 [Compound 397] . Value? 10

For the molecule shown here, C=C(C)CCn1c(=O)on(C(=O)N(c2ccccc2)C(C)C)c1=O [Compound 418] , give the reported Plant response rating, Crabgrass. 8

What does the data say about its Plant response rating, Crabgrass? Entry: CCOP(=O)(Cn1c(=O)on(C(=O)N(c2ccc(F)cc2F)C(C)C)c1=O)OCC [Compound 736] 3
